Literature-derived IC50 for High affinity nerve growth factor receptor (Homo sapiens) follows.

compound: COc1ccc(COc2ccc(Cn3cnc4cc(C5CCNCC5)ccc43)cc2OC)cn1
IC50: 11.1 µM
//
compound: COCCOc1nc(N2CCN(C(C)=O)CC2)ccc1NC(=O)c1coc2c1C(=O)NCC2
IC50: 0.0259 µM
//
compound: COc1ccc(COc2ccc(Cn3c(N)nc4cc(-c5ccncc5)cnc43)cc2OC)cn1
IC50: 0.002 µM
//
compound: COCCN1C[C@@H](NC(=O)Nc2c(C)c(-c3cnn(C)n3)nn2-c2ccccc2)[C@H](c2cccc(F)c2)C1
IC50: < 0.1 µM
//
compound: CCc1cc(Oc2ccnc3cc(OCCOC)c4c(c23)OCCO4)c(F)cc1NC(=O)c1cn(CC)c(=O)n(-c2ccc(F)cc2)c1=O
IC50: 0.05 to 0.5 µM
//
compound: COCCN1C[C@@H](NC(=O)Nc2cc(-c3ccccc3)nn2C)[C@H](c2cccc(C(F)(F)F)c2)C1
IC50: 0.1 to 1 µM
//
compound: CN1CCN(c2ccc(C(=O)Nc3n[nH]c4ncc(Br)cc34)cc2)CC1
IC50: 0.122 µM
//
compound: COCCN1C[C@@H](NC(=O)Nc2c(C3CC3)c(-c3cnn(C)c3)nn2-c2ccccc2)[C@H](c2ccc(F)c(F)c2)C1
IC50: < 0.1 µM
//
compound: COCCN1C[C@@H](NC(=O)Nc2c(C)c(C)nn2-c2ccccc2)[C@H](c2cccc(C(F)(F)F)c2)C1
IC50: < 0.1 µM
//
compound: Cc1c(C#Cc2cnc3ccc(N4CCOCC4)nn23)cccc1C(=O)Nc1cc(F)cc(C(F)(F)F)c1
IC50: 0.01 to 0.1 µM

Measured on High affinity nerve growth factor receptor (Homo sapiens), COc1cnc2[nH]cc(Cc3cc(F)c(OCc4nc5ccccc5[nH]4)cc3F)c2c1 has a documented IC50 of ≤ 10 µM

Measured on High affinity nerve growth factor receptor (Homo sapiens), CCOC(=O)c1cnc2ccc3nc2c1NCCCOc1ccc(F)cc1[C@H]1CCCN31 has a documented IC50 of < 0.05 µM

Measured on High affinity nerve growth factor receptor (Homo sapiens), COCCN1CC(NC(=O)Nc2c3c(nn2-c2ccccc2)CCC3)[C@H](c2cccc(OC)c2)C1 (stereo partly drawn) has a documented IC50 of 0.1 to 1 µM

Measured on High affinity nerve growth factor receptor (Homo sapiens), COCCN1C[C@@H](NC(=O)Nc2c3c(nn2-c2ccccc2)CCC3)[C@H](c2ccno2)C1 (relative stereo) has a documented IC50 of 0.1 to 1 µM

Measured on High affinity nerve growth factor receptor (Homo sapiens), Clc1ccc(Nc2ncc(Cc3c[nH]c4ncc(Cl)cc34)cn2)cc1 has a documented IC50 of > 1 µM

---

Literature-derived IC50 for UniProt P04629 follows.

cpd.smiles: Cc1c(C#Cc2cnc3ccc(N4CCC(N5CCOCC5)CC4)nn23)cccc1C(=O)Nc1cc(Cl)cc(C(F)(F)F)c1
IC50: 10 to 100 nM
//
cpd.smiles: Cc1c(-c2cnn(C)c2)nn(-c2ccccc2)c1NC(=O)N[C@H]1CN(CC(F)(F)F)C[C@@H]1c1ccccc1
IC50: < 100 nM
//
cpd.smiles: COCCN1C[C@@H](NC(=O)Nc2c(OC)c(C)nn2-c2ccccc2)[C@H](c2ccc(F)c(F)c2)C1
IC50: < 100 nM
//
cpd.smiles: C[C@H]1CNC(=O)c2cnn3cc(N4CCOCC4)c(nc23)NCc2cc(F)cnc2O1
IC50: > 10000 nM
//
cpd.smiles: C[C@@H]1CCc2ncncc2[C@H]2CCCN2c2ccc3ncc(n3n2)C(=O)N1
IC50: < 100 nM

compound COCCN1C[C@@H](NC(=O)Nc2c3c(nn2-c2ccccc2)CCC3)[C@](O)(c2ccccc2)C1 , IC50 observed: 1000 to 10000 nM

compound CNC(=O)c1ccc(-c2cc(OC3CCOCC3)c3c(C)n[nH]c3c2)cc1OCCOC1CCCCC1 , IC50 observed: 4.74 nM
